# credit: the supplement of paper PMC10338343

- Test system: EfPiwi piRISC loaded with L1MC piRNA (26 nt)
- TEST_DETAILS: pre-steady-state target cleavage rate (min^-1); auxiliary factor: 500 nM Ephydatia muelleri Gtsf1; guide: L1MC piRNA 5'p-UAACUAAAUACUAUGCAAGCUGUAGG; higher = faster piRNA-guided slicing of the target
ENDPOINT_NAME: pre-steady-state target cleavage rate
Give bare numbers.

Use the examples below as a reference point.
{"columns": ["RESIDUE_STRING", "MEASUREMENT"],
 "data": [
  ["UCCUCCUACAGCUUGCAUUGUAUUUAGUUA", 0.0211],
  ["UCCUGGUACAGCUUGCAUAGUAAUUAGAUA", 0.00477]
]}

Provide reported pre-steady-state target cleavage rate for each item, in the same order as listed.
1. UCCUCCUACAGCUUGCAUAGUAUUUCAGUUA
2. UCCUGGUACAGCUUGCAUGGUAUUUAGUUA

[0.00437, 0.00828]

====

- Tested on: EfPiwi piRISC loaded with piRNA #1 (26 nt)
- TEST_DETAILS: pre-steady-state target cleavage rate (min^-1); auxiliary factor: 500 nM Ephydatia muelleri Gtsf1; guide: piRNA #1 5'p-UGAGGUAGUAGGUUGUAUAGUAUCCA; higher = faster piRNA-guided slicing of the target
ENDPOINT_NAME: pre-steady-state target cleavage rate

Use the examples below as a reference point.
{"columns": ["RESIDUE_STRING", "pre-steady-state target cleavage rate"],
 "data": [
  ["GGAGACCUAACUACACAACCUACUACCUCA", 0.00487],
  ["GGAGACCAUACUAUACAACCUACUUCCACA", 0.0032],
  ["GGAGACCUAUCUAUACAUCCUACUACCUGA", 0.00459],
  ["GGAGUGGAUACUAUACAACCUUCUACCACA", 0.00272],
  ["GGAGACUAUACUAUACAACCUACUACCUCA", 0.0352]
]}

Provide reported pre-steady-state target cleavage rate for each item, in the same order as listed.
1. GGAGUGGAUAAUAUACAACCUACUACCUCA
2. GGAGACCUAUGAACACAACCUACUACCUCA
3. GGAGAGGAUACUUUACAAGCUACUACCUCA
4. GGAGACCAAACUAUACAACCUACAACCUCA

1: 0.0105; 2: 0.00896; 3: 0.00384; 4: 0.008

====

Answer each item with its documented pre-steady-state target cleavage rate.
- Test system: MILI (PIWIL2) piRISC loaded with L1MC piRNA (26 nt);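 further: 1 nM active piRISC with 0.1 nM target library at 33 °C single turnover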
- TEST_DETAILS: pre-steady-state target cleavage rate (min^-1); guide: L1MC piRNA 5'p-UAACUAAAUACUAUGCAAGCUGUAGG; MIWI and MILI are mouse PIWI proteins and EfPiwi is from a freshwater sponge; tags in brackets are library labels; higher = faster piRNA-guided slicing of the target
- PROTOCOL_CONDITIONS: auxiliary factor: 500 nM mouse GTSF1
One number for each entry.

Use the examples below as a reference point.
{"columns": ["RESIDUE_STRING", "pre-steady-state target cleavage rate"],
 "data": [
  ["UCCUGCUACAGCUUGCAAUCUAUUUUCAAA", 0.00419],
  ["UCCUCCUACAGCUUGCUUAGUAUUUAGAAA", 0.091],
  ["UCCUGGUACAGCUUGCAUAGAAUUUACUUA", 0.0206],
  ["UCCUGGAUGUCGAAGCGUAGUAUUUAGUUA", 0.00313]
]}

Provide reported pre-steady-state target cleavage rate for each item, in the same order as listed.
1. UCCUGGUACACCUUGCAUAGUAUUUACUUA
2. UCCUGGUACAGCUUCCAUUGUAUUUAGUUA
3. UCCUGGAUGUCCUUGCAUAGUAUUUAGUAA

[0.108, 0.113, 0.117]

Provide reported pre-steady-state target cleavage rate for each item, in the same order as listed.
1. UCCUCCUACAGCUUCCAUAGUAUUUAGUUA
2. UCCUGGAUCAGCUUGCAUAGUAUUUAGUGUA
3. UCCUGGAUGUCGAUGGAUAGUAUUUAGUUA
4. UCCUGCAACAGCUUGCAUAGUAUUUAGUUA
5. UCCUGGUACAGCUUCGCAUAGUAUUUAGUUA
6. UCCUGGUACAGCUAGCAUAGUAUUUAGUAA
7. UCCUGGAUGAGCUUGCAUAGUAAUUUGUUA
8. UCCUGGAUGUCCUUGCAUAGUAUUUAGGUA

[0.0831, 0.271, 0.0431, 0.398, 0.274, 0.201, 0.0508, 0.0702]

Provide reported pre-steady-state target cleavage rate for each item, in the same order as listed.
1. UCCUGCUACAGCUUGCAUGUAUUUAGUUA
2. UCCUGGUUGUGCUUGCAUAGUAUUUAGAAA
3. UCCUGGAUGAGCUUGGUUAGUAUUUAGUUA
4. UCCUGGAUCAGCUUGCAUAGAAUUUAGAAA
5. UCCUGCUACAGGAUGCAUAGUAUUUAGUAA
6. UCCUGGUAGUCCUUGCAUAGUAUUUAGAAA

1. 0.104
2. 0.0381
3. 0.195
4. 0.0123
5. 0.301
6. 0.0521

Provide reported pre-steady-state target cleavage rate for each item, in the same order as listed.
1. UCCUGCUACAGCUUGCAUAGUAAUUAGUUA
2. UCCUGGAUGUGCUUGCAUAGUAUUUUGAUA
3. UCCUGGAACUGCUUGCAUAGUAUUUUGUUA
4. UCCUGGAUGAGCUAGCAUAGUAUUUAGUUA

1: 0.271; 2: 0.0122; 3: 0.101; 4: 0.2

Provide reported pre-steady-state target cleavage rate for each item, in the same order as listed.
1. UCCUGGAUGUCCUAGCAUAGUAUUUUGUUA
2. UCCUGCAUCAGCUUGCAUAGUAUUUUCAAA

1. 0.0105
2. 0.118
